Entry source: ChEMBL document CHEMBL5543136

Tested on: CT26
Assay: Antiproliferative activity against mouse CT26 cells assessed as reduction in cell viability incubated for 48 hrs by CCK-8 assay
Type: functional, cell-based
Conditions: CT26, 48 h
endpoint_name: IC50 (µM)
Respond numerically; units are µM and should not be typed.

Cc1nnc2n1-c1cnc(Nc3ccc4nccnc4c3)nc1N(C1CCOCC1)C2 | 19.4

Which IC50 value belongs to `c1cnc2cc(Nc3ncc4c(n3)N(C3CCOCC3)Cc3nncn3-4)ccc2n1` ?
45.9

Entry under review: `Cc1cc2ncnn2cc1Nc1ncc2c(n1)N(C1CCOCC1)CC(=O)N2C` . Reported IC50?
32.9

* * *

Tested on: CT26
Assay: Antiproliferative activity against mouse CT26 cells assessed as reduction in cell viability incubated for 48 hrs by CCK-8 assay
Assay type: functional, cell-based
Details: CT26, 48 h
endpoint_name: IC50

Known IC50 results, listed for orientation:
Cc1cc2cccnc2cc1Nc1ncc2c(n1)N(C1CCOCC1)Cc1nccn1-2 | 8.9 µM
Cc1cc2cccnc2cc1Nc1ncc2c(n1)N(C1CCOCC1)Cc1nnc(C)n1-2 | 5.2 µM
Cc1cnc(-c2cnn(C)c2)cc1Nc1ncc2c(n1)N(C1CCOCC1)Cc1nncn1-2 | > 50 µM
Cc1cc2ncnn2cc1Nc1ncc2c(n1)N(C1CCOCC1)Cc1nnc(C)n1-2 | > 50 µM
COc1ccc(Nc2ncc3c(n2)N(C2CCOCC2)Cc2nnc(C)n2-3)c(C)c1 | > 50 µM

Next item in the queue.
So what does the record say about IC50 for `Cc1cc2ncnn2cc1Nc1ncc2c(n1)N(C1CCOCC1)Cc1nccn1-2` ?
> 50 µM

* * *

Test system: B16-F10
Assay: Synergistic antiproliferative activity against mouse B16-F10 cells assessed as reduction in cell viability incubated for 48 hrs in presence of doxorubicin by CCK-8 assay
Type: functional, cell-based
Conditions: B16-F10, 48 h
Let's look at some molecules and their measured IC50.
A number alone suffices; assume µM.

What value of measured IC50 is listed for `COc1ccc(Nc2ncc3c(n2)N(C2CCOCC2)Cc2nccn2-3)c(C)c1` ?
21.9

Query (molecule): `c1cn2c(n1)CN(C1CCOCC1)c1nc(Nc3ccc4nccnc4c3)ncc1-2` ; field requested: IC50
20.9

Which IC50 value belongs to `Cc1cc2cccnc2cc1Nc1ncc2c(n1)N(C1CCOCC1)Cc1nnc(C)n1-2` ?
6.5

Look at this molecule and give its reported IC50. `Cc1cc2cccnc2cc1Nc1ncc2c(n1)N(C1CCOCC1)Cc1nncn1-2`
4.9

Record request: IC50 value, item `Cc1cc2ncnn2cc1Nc1ncc2c(n1)N(C1CCOCC1)CC(=O)N2C`
20.6

Give the measured IC50 of Cc1cc2ncnn2cc1Nc1ncc2c(n1)n(C1CCOCC1)c(=O)n2C [AZD-7648] .
11.4

Fill blank: measured IC50 of the molecule `Cc1cc2cccnc2cc1Nc1ncc2c(n1)N(C1CCOCC1)Cc1nccn1-2` is ____.
7.5

Give its IC50 value. Item: `Cc1nnc2n1-c1cnc(Nc3ccc4nccnc4c3)nc1N(C1CCOCC1)C2`
26.9

* * *

Assay: AUC (0 to t) in male Sprague-Dawley rat at 2 mg/kg, iv measured after 48 hrs by LC-MS/MS analysis
Assay type: ADME, organism-based
Details: in vivo
endpoint_name: AUC(0-t) at 48 h (ng·h/mL)
The answer is to be given in ng·h/mL; state only the numeric part.

Param item = `Cc1cc2cccnc2cc1Nc1ncc2c(n1)N(C1CCOCC1)Cc1nncn1-2` ; retrieve measured AUC(0-t) at 48 h.
604

* * *

Assay: Tmax in male Sprague-Dawley rat at 10 mg/kg, po measured after 48 hrs by LC-MS/MS analysis
Type: ADME, organism-based
Conditions: in vivo
endpoint_name: Tmax (h)
Use h as the unit, but write only the number.

# lookup: Tmax of `Cc1cc2cccnc2cc1Nc1ncc2c(n1)N(C1CCOCC1)Cc1nncn1-2`
1.4

* * *

Experiment: Apparent volume of distribution in male Sprague-Dawley rat at 2 mg/kg, iv measured after 48 hrs by LC-MS/MS analysis
Assay type: ADME, organism-based
Conditions: in vivo, read-out: Vz
endpoint_name: Vd (L/kg)
# number only, unit L/kg dropped from output

Vd for `Cc1cc2cccnc2cc1Nc1ncc2c(n1)N(C1CCOCC1)Cc1nncn1-2` ?
4.7

* * *

Assay: Tmax in male Sprague-Dawley rat at 2 mg/kg, iv measured after 48 hrs by LC-MS/MS analysis
Type: ADME, organism-based
Settings: in vivo
endpoint_name: Tmax

I would be grateful if you could share the reported Tmax for `Cc1cc2cccnc2cc1Nc1ncc2c(n1)N(C1CCOCC1)Cc1nncn1-2` .
4.98 min

* * *

Assay: Clearance in male Sprague-Dawley rat at 10 mg/kg, po measured after 48 hrs by LC-MS/MS analysis
Type: ADME, organism-based
Details: in vivo
endpoint_name: CL/F
For clarity, give the value followed by its unit.

Look up CL/F: `Cc1cc2cccnc2cc1Nc1ncc2c(n1)N(C1CCOCC1)Cc1nncn1-2`
210 mL/min/kg

* * *

Assay: Oral bioavailability in male Sprague-Dawley rat at 10 mg/kg measured after 48 hrs by LC-MS/MS analysis
Assay type: ADME, organism-based
Settings: in vivo
endpoint_name: bioavailability (%)
Give the number; % is assumed, so skip it.

What does the data say about its bioavailability? Entry: `Cc1cc2cccnc2cc1Nc1ncc2c(n1)N(C1CCOCC1)Cc1nncn1-2`
31.8

* * *

Biological target: DNA-dependent protein kinase catalytic subunit (Homo sapiens, UniProt P78527)
Sequence (P78527 whole entry): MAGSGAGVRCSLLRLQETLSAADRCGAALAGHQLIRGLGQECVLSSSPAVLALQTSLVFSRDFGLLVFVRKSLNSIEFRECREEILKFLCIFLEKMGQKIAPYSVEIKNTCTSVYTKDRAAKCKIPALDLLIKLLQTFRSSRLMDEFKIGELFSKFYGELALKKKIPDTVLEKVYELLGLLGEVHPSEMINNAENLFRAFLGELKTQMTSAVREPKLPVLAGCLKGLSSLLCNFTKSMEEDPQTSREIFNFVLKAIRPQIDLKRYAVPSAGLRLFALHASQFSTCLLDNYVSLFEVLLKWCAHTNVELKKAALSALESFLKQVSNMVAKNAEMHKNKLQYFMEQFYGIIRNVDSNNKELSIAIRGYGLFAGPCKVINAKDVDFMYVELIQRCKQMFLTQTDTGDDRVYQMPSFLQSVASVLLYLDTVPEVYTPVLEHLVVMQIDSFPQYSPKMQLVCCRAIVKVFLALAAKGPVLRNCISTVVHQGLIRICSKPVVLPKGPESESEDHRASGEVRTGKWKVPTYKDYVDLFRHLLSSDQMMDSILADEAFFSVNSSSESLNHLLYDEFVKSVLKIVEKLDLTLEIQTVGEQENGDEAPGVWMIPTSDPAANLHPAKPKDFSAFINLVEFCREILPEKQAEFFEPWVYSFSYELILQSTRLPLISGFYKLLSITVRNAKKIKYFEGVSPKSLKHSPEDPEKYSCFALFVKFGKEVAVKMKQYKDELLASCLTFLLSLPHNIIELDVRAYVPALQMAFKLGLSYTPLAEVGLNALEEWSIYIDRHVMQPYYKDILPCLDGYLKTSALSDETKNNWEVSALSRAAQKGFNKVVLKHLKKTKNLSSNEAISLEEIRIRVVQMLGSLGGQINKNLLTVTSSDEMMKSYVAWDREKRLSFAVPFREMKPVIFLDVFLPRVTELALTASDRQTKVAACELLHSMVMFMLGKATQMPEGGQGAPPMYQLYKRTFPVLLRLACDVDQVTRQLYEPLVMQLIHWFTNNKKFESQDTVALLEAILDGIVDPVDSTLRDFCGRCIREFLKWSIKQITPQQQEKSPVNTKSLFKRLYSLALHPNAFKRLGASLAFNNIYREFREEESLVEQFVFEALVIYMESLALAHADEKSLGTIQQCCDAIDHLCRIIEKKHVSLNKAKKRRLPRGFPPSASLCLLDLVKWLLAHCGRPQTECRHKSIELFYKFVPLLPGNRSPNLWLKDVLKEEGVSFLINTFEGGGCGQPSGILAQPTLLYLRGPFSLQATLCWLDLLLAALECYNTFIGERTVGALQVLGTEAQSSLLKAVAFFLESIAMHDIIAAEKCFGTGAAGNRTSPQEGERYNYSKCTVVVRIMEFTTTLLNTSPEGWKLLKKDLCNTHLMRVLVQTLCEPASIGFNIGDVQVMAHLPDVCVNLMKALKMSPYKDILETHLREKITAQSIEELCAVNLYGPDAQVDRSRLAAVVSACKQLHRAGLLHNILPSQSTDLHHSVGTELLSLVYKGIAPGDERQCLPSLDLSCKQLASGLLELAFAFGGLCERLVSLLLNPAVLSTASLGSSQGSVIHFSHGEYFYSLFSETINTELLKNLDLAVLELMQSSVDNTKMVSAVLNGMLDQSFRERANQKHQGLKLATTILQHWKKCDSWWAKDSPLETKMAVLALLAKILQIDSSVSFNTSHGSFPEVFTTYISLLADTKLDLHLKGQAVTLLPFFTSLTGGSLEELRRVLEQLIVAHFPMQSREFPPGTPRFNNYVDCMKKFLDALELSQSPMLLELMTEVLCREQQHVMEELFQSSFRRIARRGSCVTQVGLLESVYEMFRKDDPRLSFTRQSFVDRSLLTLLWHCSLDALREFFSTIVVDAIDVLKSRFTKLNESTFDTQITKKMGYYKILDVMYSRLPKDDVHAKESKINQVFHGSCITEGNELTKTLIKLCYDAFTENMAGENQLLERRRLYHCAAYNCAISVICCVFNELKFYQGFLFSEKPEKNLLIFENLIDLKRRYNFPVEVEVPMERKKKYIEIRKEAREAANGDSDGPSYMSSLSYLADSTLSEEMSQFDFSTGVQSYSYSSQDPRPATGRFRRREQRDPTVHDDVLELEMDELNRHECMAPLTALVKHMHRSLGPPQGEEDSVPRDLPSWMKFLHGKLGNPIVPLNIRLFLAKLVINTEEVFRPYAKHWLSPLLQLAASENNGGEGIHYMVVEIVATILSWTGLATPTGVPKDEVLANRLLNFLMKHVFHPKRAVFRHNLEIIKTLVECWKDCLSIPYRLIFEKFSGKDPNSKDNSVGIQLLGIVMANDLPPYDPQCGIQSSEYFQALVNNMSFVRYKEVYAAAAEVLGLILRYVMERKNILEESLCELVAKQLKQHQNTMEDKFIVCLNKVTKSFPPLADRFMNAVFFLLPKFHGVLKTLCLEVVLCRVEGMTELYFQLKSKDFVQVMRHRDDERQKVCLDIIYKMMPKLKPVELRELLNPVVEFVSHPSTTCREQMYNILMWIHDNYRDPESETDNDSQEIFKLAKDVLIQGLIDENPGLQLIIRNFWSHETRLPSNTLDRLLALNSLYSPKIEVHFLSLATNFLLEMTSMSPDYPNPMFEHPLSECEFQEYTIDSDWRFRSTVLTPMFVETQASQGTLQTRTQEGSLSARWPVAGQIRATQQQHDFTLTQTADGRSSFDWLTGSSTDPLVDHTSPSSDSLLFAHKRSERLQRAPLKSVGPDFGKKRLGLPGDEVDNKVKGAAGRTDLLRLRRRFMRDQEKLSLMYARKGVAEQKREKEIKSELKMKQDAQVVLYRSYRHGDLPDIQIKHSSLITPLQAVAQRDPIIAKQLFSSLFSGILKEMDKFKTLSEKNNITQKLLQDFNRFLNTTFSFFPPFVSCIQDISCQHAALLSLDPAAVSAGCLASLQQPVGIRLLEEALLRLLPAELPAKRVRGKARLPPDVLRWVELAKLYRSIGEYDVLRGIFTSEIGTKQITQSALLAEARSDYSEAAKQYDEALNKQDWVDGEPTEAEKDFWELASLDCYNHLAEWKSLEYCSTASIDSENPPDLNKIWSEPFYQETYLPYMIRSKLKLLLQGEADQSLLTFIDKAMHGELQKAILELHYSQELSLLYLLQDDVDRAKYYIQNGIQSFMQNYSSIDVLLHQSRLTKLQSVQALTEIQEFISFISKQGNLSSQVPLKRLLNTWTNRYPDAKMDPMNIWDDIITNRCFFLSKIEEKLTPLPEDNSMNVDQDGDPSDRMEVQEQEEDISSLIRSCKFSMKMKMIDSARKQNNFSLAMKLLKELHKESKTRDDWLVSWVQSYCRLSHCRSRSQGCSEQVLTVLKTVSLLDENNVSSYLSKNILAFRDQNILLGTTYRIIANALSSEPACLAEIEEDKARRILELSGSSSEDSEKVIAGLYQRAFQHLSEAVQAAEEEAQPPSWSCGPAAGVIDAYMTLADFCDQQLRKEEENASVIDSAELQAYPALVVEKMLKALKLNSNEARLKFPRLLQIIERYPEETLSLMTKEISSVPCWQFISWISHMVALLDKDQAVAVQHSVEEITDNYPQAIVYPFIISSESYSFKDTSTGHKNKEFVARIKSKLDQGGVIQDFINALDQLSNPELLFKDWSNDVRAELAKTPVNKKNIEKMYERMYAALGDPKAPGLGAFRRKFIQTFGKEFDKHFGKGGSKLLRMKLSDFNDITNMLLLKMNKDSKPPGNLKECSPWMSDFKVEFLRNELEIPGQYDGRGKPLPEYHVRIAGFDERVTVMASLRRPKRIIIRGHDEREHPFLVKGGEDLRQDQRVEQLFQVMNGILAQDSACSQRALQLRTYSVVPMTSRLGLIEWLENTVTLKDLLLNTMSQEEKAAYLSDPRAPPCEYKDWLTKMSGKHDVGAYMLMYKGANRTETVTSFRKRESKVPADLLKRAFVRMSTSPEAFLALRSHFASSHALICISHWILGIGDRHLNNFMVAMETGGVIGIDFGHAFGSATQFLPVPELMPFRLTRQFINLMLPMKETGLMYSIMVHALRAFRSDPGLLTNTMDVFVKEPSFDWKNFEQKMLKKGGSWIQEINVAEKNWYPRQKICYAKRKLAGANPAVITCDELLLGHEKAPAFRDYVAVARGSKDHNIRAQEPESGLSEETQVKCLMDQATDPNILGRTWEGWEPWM
Experiment: Inhibition of human full-length DNA-PK using EPPLSQEAFADLWKK as substrate incubated for 60 mins in presence of ATP by ADP-Glo kinase assay
pIC50: −log10 of the molar value.
Kindly return rule met if reported pIC50 is no lower than 8; return rule not met if it is lower.

For orientation, consider the following solved cases.
Cc1cnc(-c2cnn(C)c2)cc1Nc1ncc2c(n1)N(C1CCOCC1)Cc1nncn1-2 | rule not met
Cc1cnc(-c2cnn(C)c2)cc1Nc1ncc2c(n1)N(C1CCOCC1)Cc1nccn1-2 | rule not met
Cc1cc2cccnc2cc1Nc1ncc2c(n1)N(C1CCOCC1)Cc1nncn1-2 | rule met
Cc1nnc2n1-c1cnc(Nc3ccc4nccnc4c3)nc1N(C1CCOCC1)C2 | rule not met
Cc1cc2ncnn2cc1Nc1ncc2c(n1)N(C1CCOCC1)Cc1nccn1-2 | rule met

Hi, just wondering whether `Cc1cnc(-c2cnn(C)c2)cc1Nc1ncc2c(n1)N(C1CCOCC1)Cc1nnc(C)n1-2` shows pIC50 of 8 or higher.
rule not met

Quick check: does `Cc1cc2ncnn2cc1Nc1ncc2c(n1)N(C1CCOCC1)Cc1nncn1-2` have pIC50 greater than or equal to 8?
rule met

Record `c1cnc2cc(Nc3ncc4c(n3)N(C3CCOCC3)Cc3nncn3-4)ccc2n1` ; criterion: pIC50 no lower than 8. Met?
rule not met

* * *

Molecular target: DNA-dependent protein kinase catalytic subunit (Homo sapiens, UniProt P78527)
Assay: Inhibition of human full-length DNA-PK using EPPLSQEAFADLWKK as substrate incubated for 60 mins in presence of ATP by ADP-Glo kinase assay
endpoint_name: IC50 (nM)
Please state the figure in nM; there is no need to write the unit.

What does the data say about its IC50? Entry: `c1cn2c(n1)CN(C1CCOCC1)c1nc(Nc3ccc4nccnc4c3)ncc1-2`
62.8

What value of IC50 has been reported for the following compound? `Cc1cc2cccnc2cc1Nc1ncc2c(n1)N(C1CCOCC1)Cc1nccn1-2`
0.35

Item under review: `COc1ccc(Nc2ncc3c(n2)N(C2CCOCC2)Cc2nccn2-3)c(C)c1` . Reported IC50?
8.9

Form field: reported IC50 of `Cc1cc2cccnc2cc1Nc1ncc2c(n1)N(C1CCOCC1)Cc1nnc(C)n1-2`
0.62

* * *

Assay: Cmax in male Sprague-Dawley rat at 10 mg/kg, po measured after 48 hrs by LC-MS/MS analysis
Type: ADME, organism-based
Conditions: in vivo
endpoint_name: Cmax (ng/mL)
Please state the figure in ng/mL; there is no need to write the unit.

Given the compound `Cc1cc2cccnc2cc1Nc1ncc2c(n1)N(C1CCOCC1)Cc1nncn1-2` , what is its reported Cmax?
324

* * *

Listed compounds paired with reported IC50
System: CT26
Test: Antiproliferative activity against mouse CT26 cells assessed as reduction in cell viability incubated for 48 hrs by CCK-8 assay
Assay type: functional, cell-based
Settings: CT26, 48 h
Field format: number, assumed µM, no unit text.

Here are 3 compounds together with their reported answers.
Cc1cc2ncnn2cc1Nc1ncc2c(n1)n(C1CCOCC1)c(=O)n2C | 18.8
Cc1cc2cccnc2cc1Nc1ncc2c(n1)N(C1CCOCC1)Cc1nncn1-2 | 4.1
c1cn2c(n1)CN(C1CCOCC1)c1nc(Nc3ccc4nccnc4c3)ncc1-2 | 27.6

API: value(readout=IC50, system=CT26) for record `COc1ccc(Nc2ncc3c(n2)N(C2CCOCC2)Cc2nccn2-3)c(C)c1`
31.2

* * *

Test system: CT26
Experiment: Antiproliferative activity against mouse CT26 cells assessed as reduction in cell viability incubated for 48 hrs by CCK-8 assay
Format: functional, cell-based
Settings: CT26, 48 h
pIC50: −log10 of the molar value.
endpoint_name: pIC50

Sample `Cc1cnc(-c2cnn(C)c2)cc1Nc1ncc2c(n1)N(C1CCOCC1)Cc1nnc(C)n1-2` — what was its pIC50?
< 4.30

Need pIC50 of `Cc1cnc(-c2cnn(C)c2)cc1Nc1ncc2c(n1)N(C1CCOCC1)Cc1nccn1-2` , thanks.
< 4.30

If you can, please state the reported pIC50 value of `Cc1cc2ncnn2cc1Nc1ncc2c(n1)N(C1CCOCC1)Cc1nncn1-2` .
< 4.30
